From: patent EP4696329A1

ASSAY SYSTEM: T1, human ROR1 expressed on cells (MDA-MB-231, Jeko-1, PA-1, HCC1187) (human, UniProt Q01973 30-937)
T1 construct: also called hROR1
T1 sequence (Q01973 30-937 limits assumed): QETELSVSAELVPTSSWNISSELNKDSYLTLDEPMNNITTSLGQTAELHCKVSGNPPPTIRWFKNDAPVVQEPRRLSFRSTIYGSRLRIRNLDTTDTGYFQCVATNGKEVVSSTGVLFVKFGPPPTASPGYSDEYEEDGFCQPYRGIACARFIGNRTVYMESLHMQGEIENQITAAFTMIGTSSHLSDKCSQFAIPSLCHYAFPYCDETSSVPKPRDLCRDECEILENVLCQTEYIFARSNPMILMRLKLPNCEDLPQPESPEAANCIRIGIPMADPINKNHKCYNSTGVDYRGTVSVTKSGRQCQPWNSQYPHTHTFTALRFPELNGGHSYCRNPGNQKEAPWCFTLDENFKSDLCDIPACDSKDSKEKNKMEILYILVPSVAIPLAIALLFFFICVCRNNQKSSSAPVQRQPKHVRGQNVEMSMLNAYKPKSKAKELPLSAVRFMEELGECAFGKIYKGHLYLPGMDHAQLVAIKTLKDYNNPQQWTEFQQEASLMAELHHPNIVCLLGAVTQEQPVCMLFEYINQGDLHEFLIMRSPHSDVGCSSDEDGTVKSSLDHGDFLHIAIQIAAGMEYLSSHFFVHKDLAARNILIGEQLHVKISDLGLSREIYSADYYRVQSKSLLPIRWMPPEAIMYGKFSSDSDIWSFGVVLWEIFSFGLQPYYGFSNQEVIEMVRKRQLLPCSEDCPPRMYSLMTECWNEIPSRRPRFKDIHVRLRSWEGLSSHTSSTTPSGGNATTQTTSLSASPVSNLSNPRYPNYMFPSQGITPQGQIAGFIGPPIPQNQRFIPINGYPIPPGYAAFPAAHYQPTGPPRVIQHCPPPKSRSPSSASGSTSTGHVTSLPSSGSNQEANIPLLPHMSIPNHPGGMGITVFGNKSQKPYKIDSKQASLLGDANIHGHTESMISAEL
METHOD NOTES: flow cytometry on MDA-MB-231 cells
ASSAY ENDPOINT: EC50

Guide cases for EC50, answers given:
binder="YR-11 (antibody, human IgG1, kappa, V domains shown) VH: QVQLQESGPGLVKPSETLSLTCTVSGFSLTRYGVHWIRQPPGKGLEWIGVIWAGGFTNYNSALKSRVTISKDNSKNQVSLKLSSVTAADTAVYYCARRGNEYSMSYWGQGTLVTVSS VL: EIVLTQSPATLSLSPGERATLSCSASSQVSYIHWYQQKPGQAPRPWIYETSKLASGIPARFSGSGSGTDYTLTISSLEPEDFAVYYCQQWNYPLITFGQGTKLEIKR" val="0.02 µg/mL"
binder="YR-10 (antibody, human IgG1, kappa, V domains shown) VH: QVQLQESGPGLVKPSETLSLTCTVSGFSLTRYGVHWIRQPPGKGLEWIGVIWAGGFTNYNSTLKSRVTISKDNSKNQVSLKLSSVTAADTAVYYCARRGNQYSMKYWGQGTLVTVSS VL: EIVLTQSPATLSLSPGERATLSCSASSQVSYIHWYQQKPGQAPRPWIYETSKLASGIPARFSGSGSGTDYTLTISSLEPEDFAVYYCQQWNYPLISFGQGTKLEIKR" val="0.06 µg/mL"

Item under review: YR-8 (antibody, human IgG1, kappa, V domains shown) VH: QVQLQESGPGLVKPSETLSLTCTVSGFSLTRYGVHWIRQPPGKGLEWLGVIWAGGFTNYNSDLKSRLTISKDNSKNQVSLKLSSVTAADTAVYYCARRGDSYSMKYWGQGTLVTVSS VL: EIVLTQSPATLSLSPGERATLSCSASSQVSYIHWYQQKPGQAPRPWIYETSKLASGIPARFSGSGSGTDYTLTISSLEPEDFAVYYCQQWNYPLITFGQGTKLEIKR . Reported EC50? 0.02 µg/mL
